glass transition temperature by entry:
Entry rule: numbers only, all in °C.

These solved cases illustrate the format of a correct answer.
1. *Nc1ccc(NC(=O)CCCCCCCC(*)=O)cc1 (repeat unit)    130.00
2. *CC(*)(C)C(=O)OCCCCCCCOc1ccc2cc(C(=O)Oc3ccccc3)ccc2c1 (repeat unit)    40.00
3. *c1ccc2c(c1)C(=O)N(c1c(C)cc(C(c3cccc(C(F)(F)F)c3)c3cc(C)c(N4C(=O)c5ccc(C(*)(C(F)(F)F)C(F)(F)F)cc5C4=O)c(C)c3)cc1C)C2=O (repeat unit)    286.10

Please give the measured glass transition temperature for this molecule: *c1ccc(Oc2ccc(-n3c(=O)c4c(Oc5ccc(OCCCCCCCC)cc5)c5c(=O)n(*)c(=O)c5c(Oc5ccc(OCCCCCCCC)cc5)c4c3=O)cc2)cc1 (repeat unit)
234.50

What about *CCCNC(=O)CNC(=O)C(Cc1ccccc1)NC(=O)CCCCCCCCC(=O)NC(Cc1ccccc1)C(=O)NCC(=O)NCCCOCCOCCO* (repeat unit) ?
36.00

What about *Oc1ccc(C(C)(C)c2ccc(OC3(F)C(*)(F)C(F)(F)C3(F)F)cc2)cc1 (repeat unit) ?
98.00

What about *CC(*)c1ccc(B(Oc2cccc3cccnc23)c2ccc(C(C)(C)C)cc2)cc1 (repeat unit) ?
240.00

* * *

MEASURED_ATTRIBUTE: glass transition temperature (°C)
Entry rule: numbers only, all in °C.

These solved cases illustrate the format of a correct answer.
1. *c1ccc(C(C)(C)c2ccc(N3C(=O)c4ccc(Oc5ccc6cc(Oc7ccc8c(c7)C(=O)N(*)C8=O)ccc6c5)cc4C3=O)cc2)cc1 (repeat unit)    236.00
2. *C(=O)Nc1ccc(Oc2ccc(S(=O)(=O)c3ccc(Oc4ccc(NC(=O)c5ccc6c(c5)C(=O)N(c5ccc(Oc7cccc8c(Oc9ccc(N%10C(=O)c%11ccc(*)cc%11C%10=O)cc9)cccc78)cc5)C6=O)cc4)cc3)cc2)cc1 (repeat unit)    260.00
3. *Cc1cccc(CNC(=O)/C=C(\C)C(=O)N*)c1 (repeat unit)    135.00
4. *C(=O)c1ccc2c(c1)C(=O)N(c1ccc(-c3c(-c4ccc(-c5ccccc5)cc4)cc(-c4ccc(OCCCCCCOc5ccc(-c6cc(-c7ccc(-c8ccccc8)cc7)c(-c7ccc(N8C(=O)c9ccc(*)cc9C8=O)cc7)c(-c7ccc(-c8ccccc8)cc7)c6)cc5)cc4)cc3-c3ccc(-c4ccccc4)cc3)cc1)C2=O (repeat unit)    111.50
5. *c1ccc(N2C(=O)c3c(c(-c4ccccc4)c(-c4ccc(-c5c(-c6ccccc6)c6c(c(-c7ccccc7)c5-c5ccccc5)C(=O)N(*)C6=O)cc4)c(-c4ccccc4)c3-c3ccccc3)C2=O)cc1 (repeat unit)    466.00
6. *CCC(*)=O (repeat unit)    15.00
7. *CC(*)c1ccc(COc2ccc(-c3ccc(-c4ccc(-c5ccc(CCCCCC)s5)s4)c4nsnc34)cc2)cc1 (repeat unit)    122.00
8. *c1ccc(C(=O)c2ccc(Oc3ccc(-c4nn(*)c(=O)c5ccccc45)cc3)cc2)cc1 (repeat unit)    263.00

Please give the measured glass transition temperature for this compound: *C#Cc1cccc(C#C[Si](*)(C)C)c1 (repeat unit)
50.00

What about *C(=O)c1ccc2c(c1)C(=O)N(c1ccc(C(c3ccccc3)(c3ccc(N4C(=O)c5ccc(*)cc5C4=O)cc3)C(F)(F)F)cc1)C2=O (repeat unit) ?
311.00

What about *CCOC(=O)CCCCCCCCC(=O)O* (repeat unit) [Poly(ethylene sebacate)] ?
-29.6

What about *Oc1ccc(OC(=O)c2ccc(C(*)=O)cc2Sc2ccc(C)cc2)cc1 (repeat unit) ?
134.00

What about *CC(=O)NCCCCCCNC(=O)COC(=O)CCCCCCC(=O)O* (repeat unit) ?
8.00

What about *Oc1ccc(S(=O)(=O)c2ccc(Oc3ccc(C(=C)c4ccc(*)cc4)cc3)cc2)cc1 (repeat unit) ?
167.00

What about *CC(C)(C)COC(=O)NC(=O)c1cc(C(=O)NC(=O)O*)cc(C(C)(C)C)c1 (repeat unit) ?
144.00

What about *c1ccc(Sc2ccc(Sc3ccc(Sc4ccc(Sc5ccc(N6C(=O)c7ccc(Sc8ccc(Sc9ccc(Sc%10ccc%11c(c%10)C(=O)N(*)C%11=O)cc9)cc8)cc7C6=O)cc5)s4)s3)s2)cc1 (repeat unit) ?
177.00

What about *CC1CC2CC1C1CCC(CN3C(=O)c4ccc(C(c5ccc6c(c5)C(=O)N(*)C6=O)(C(F)(F)F)C(F)(F)F)cc4C3=O)C21 (repeat unit) ?
207.00

What about *c1cccc(P(=O)(c2ccc(Oc3ccc(C45CC6CC(CC(C6)C4)C5)cc3)cc2)c2cccc(-n3c(=O)c4cc5c(=O)n(*)c(=O)c5cc4c3=O)c2)c1 (repeat unit) ?
330.00

What about *c1ccc(Oc2ccc(Oc3ccc(N4C(=O)c5ccc(-c6ccc7c(c6)C(=O)N(*)C7=O)cc5C4=O)cc3)c(C(C)(C)C)c2)cc1 (repeat unit) ?
274.00

* * *

MEASURED_ATTRIBUTE: glass transition temperature (°C)
Entry rule: numbers only, all in °C.

These solved cases illustrate the format of a correct answer.
1) *CC(*)(C)C(=O)OCCCCCCc1ccc(/N=N/c2ccc(OC(F)(F)F)cc2)cc1 (repeat unit)    194.50
2) *CCCCCCCCCCOC(=O)c1ccc(C(=O)O*)cc1 (repeat unit)    10.50
3) *CC(*)(C)C(=O)OCCO[N+](=O)[O-] (repeat unit)    55.00
4) *Oc1c(C)cc(-c2cc(C)c(Oc3ccc(C(=O)c4ccc5cc(C(=O)c6ccc(*)cc6)ccc5c4)cc3)c(C)c2)cc1C (repeat unit)    270.00
5) *CCCCCN1C(=O)c2ccc(C(=O)Oc3ccc(-c4ccc(OC(=O)c5ccc6c(c5)C(=O)N(*)C6=O)cc4)cc3)cc2C1=O (repeat unit)    147.00

Please give the measured glass transition temperature for this compound: *c1ccc(C)c(N2C(=O)c3ccc(-c4ccc5c(c4)C(=O)N(*)C5=O)cc3C2=O)c1 (repeat unit)
395.00

What about *Oc1ccc(Oc2ccc(C(=O)c3ccc(Oc4ccc(Oc5cccc(*)n5)cc4)cc3)cc2)cc1 (repeat unit) ?
124.00

What about *c1cc(C(=O)NCCCC)cc(N2C(=O)c3ccc(-c4ccc5c(c4)C(=O)N(*)C5=O)cc3C2=O)c1 (repeat unit) ?
291.00

What about *Oc1ccc(OC(=O)c2cc(OCCCCCCCOCC3CCCN3c3ccc([N+](=O)[O-])cc3)c(C(*)=O)cc2OCCCCCCCOCC2CCCN2c2ccc([N+](=O)[O-])cc2)cc1 (repeat unit) ?
50.00

What about *CCOCCOC(=O)c1ccc(N/C=N/c2ccc(C(=O)O*)cc2)cc1 (repeat unit) ?
77.00

What about *CC(*)(F)C(=O)OCC(F)(F)C(F)(F)F (repeat unit) ?
99.00

What about *CC(*)(C)C(=O)OCCCCCCCC/C=C/CCCCCCCC (repeat unit) ?
-40.00

What about *O[Si](*)(C)CCCOCCOCCOCCOC (repeat unit) ?
-64.21

* * *

MEASURED_ATTRIBUTE: glass transition temperature (°C)
Entry rule: numbers only, all in °C.

These solved cases illustrate the format of a correct answer.
1) *Oc1ccc(OC(=O)c2cc(OCCCCCCCCOCC3CCCN3c3ccc([N+](=O)[O-])cc3)c(C(*)=O)cc2OCCCCCCCCOCC2CCCN2c2ccc([N+](=O)[O-])cc2)cc1 (repeat unit)    41.00
2) *N=P(N=P(N=S(*)(=O)NCCC)(NCCC)NCCC)(NCCC)NCCC (repeat unit)    6.00
3) *COC(=O)OCC1OC(OCC)(OCC)OC1* (repeat unit)    10.80
4) *CCC1C(=O)N(CCCCCCCCCCCCCCCCCC)C(=O)C1* (repeat unit)    67.10
5) *c1ccc(Oc2ccc(S(=O)(=O)c3ccc(Oc4ccc(N5C(=O)c6ccc(Oc7ccc(C(C)(C)c8ccc(Oc9ccc%10c(c9)C(=O)N(*)C%10=O)cc8)cc7)cc6C5=O)cc4)cc3)cc2)cc1 (repeat unit)    200.00

Please give the measured glass transition temperature for this compound: *CC1CCC(COC(=O)c2ccc(C(=O)O*)cc2)CC1 (repeat unit)
84.50

What about *CCCCc1ccc(-c2c(-c3ccccc3)cc(-c3cccc(-c4cc(-c5ccccc5)c(-c5ccc(*)cc5)c(-c5ccccc5)c4-c4ccccc4)c3)c(-c3ccccc3)c2-c2ccccc2)cc1 (repeat unit) ?
180.00

What about *CC(*)(C)C(=O)OCC=C (repeat unit) ?
94.00

* * *

MEASURED_ATTRIBUTE: glass transition temperature (°C)
Entry rule: numbers only, all in °C.

These solved cases illustrate the format of a correct answer.
1. *OC(C)COC(=O)/C=C/C(*)=O (repeat unit)    -14.00
2. *Nc1cc(NC(=O)Nc2ccc(Cc3ccc(NC(*)=O)cc3)cc2)cc(C(=O)Nc2cccc3c2C(=O)c2ccccc2C3=O)c1 (repeat unit)    178.00
3. *Nc1cc(NC(=O)NC2CCC(CC3CCC(NC(*)=O)CC3)CC2)cc(C(=O)Nc2cccc3c2C(=O)c2ccccc2C3=O)c1 (repeat unit)    156.00
4. *CC(=O)Nc1ccc(Oc2ccc(S(=O)(=O)c3ccc(Oc4ccc(NC(=O)CN5C(=O)c6ccc(C(c7ccc8c(c7)C(=O)N(*)C8=O)(C(F)(F)F)C(F)(F)F)cc6C5=O)cc4)cc3)cc2)cc1 (repeat unit)    241.00
5. *CC(*)(C)C(=O)OC12CC3CC(CC(C3)C1)C2 (repeat unit)    183.00
6. *Oc1ccc(C(C)(C)c2ccc(OC(=O)OCCN(CCOC(*)=O)c3ccc4[nH]c5ccccc5c4c3)cc2)cc1 (repeat unit)    90.00
7. */C(C)=C(/*)SCC (repeat unit)    160.00
8. *C[Si](*)(C)CCCOCCOCCOC (repeat unit)    -73.30
9. *Oc1ccc(OC(=O)c2ccc(C(*)=O)cc2Oc2ccc(C3CCCCC3)cc2)cc1 (repeat unit)    113.00
10. *CCCCCCCCCCCCNC(=O)NCCCCCCNC(=O)N* (repeat unit)    49.00

Let's switch to this molecule now.
Please give the measured glass transition temperature for this molecule: */C=C/C(*)(C)c1ccccc1 (repeat unit)
52.00

The reported numbers originate from the PolyMetriX glass transition set.
